Conditions: human gut metagenome, 24 h, 2 µM; further: call rule not given here
attribute-measured: Bacterial Biotransformation

Worked examples, 6 compounds total:
>  <compound>
Cc1ccccc1N1C(=O)c2cc(S(N)(=O)=O)c(Cl)cc2NC1C (stereo not drawn)

>  <Bacterial Biotransformation>
Compound NOT metabolized

$$$$
>  <compound>
O=c1n(CCCN2CCN(c3cccc(Cl)c3)CC2)nc2ccccn12

>  <Bacterial Biotransformation>
Compound NOT metabolized

$$$$
>  <compound>
N#Cc1ccc(C(c2ccc(C#N)cc2)n2cncn2)cc1

>  <Bacterial Biotransformation>
Compound NOT metabolized

$$$$
>  <compound>
CC(CN1c2ccccc2Sc2ccccc21)N(C)C (stereo not drawn)

>  <Bacterial Biotransformation>
Compound NOT metabolized

$$$$
>  <compound>
CC(C)N(CCC(C(N)=O)(c1ccccc1)c1ccccn1)C(C)C.O=P(O)(O)O (stereo not drawn) [DISOPYRAMIDE PHOSPHATE]

>  <Bacterial Biotransformation>
Compound NOT metabolized

$$$$
>  <compound>
CC(=O)OCC(=O)[C@@]1(O)[C@@H](C)C[C@H]2[C@@H]3CCC4=CC(=O)C=C[C@]4(C)[C@@]3(F)[C@@H](O)C[C@@]21C [BETAMETHASONE ACETATE]

>  <Bacterial Biotransformation>
Compound metabolized

$$$$

Kindly give each listed record's Bacterial Biotransformation.
1. CCOc1ccc(NC(C)=O)cc1
2. COc1ccc(CCN(C)CCCC(C#N)(c2ccc(OC)c(OC)c2)C(C)C)cc1OC (stereo not drawn)

1: Compound NOT metabolized; 2: Compound metabolized
